Ref: ChEMBL document CHEMBL4229377

- Tested on: SH-SY5Y
- run.description: Neuroprotective activity against NMDA-induced cell damage in human SH-SY5Y cells assessed as cell viability at 1 uM preincubated for 6 hrs followed by NMDA addition and measured after 30 mins by MTT assay (reference value: 58.7 +/- 2.3%)
- Type: functional
- reported.conditions: read-out: Activity
# if measured viability at 1 µM < 70%: 1 (yes)  # else: 0 (no)

Some entries whose results are on file:
O=C(NCc1ccc(O)cc1)[C@H]1CCC2=Nc3ccc(Br)cc3CN21
0 (no)
COc1ccc(NC(=O)[C@@H]2CCC3=Nc4ccccc4CN32)cc1
0 (no)
O=C(NCCc1ccc(O)cc1)[C@H]1CCC2=Nc3ccccc3CN21
0 (no)
COc1ccc(CCNC(=O)[C@@H]2CCC3=Nc4ccccc4CN32)cc1
0 (no)
O=C(NCCc1ccc(O)cc1)[C@@H]1CCC2=Nc3ccccc3CN21
0 (no)
O=C(NCCc1ccc(F)cc1)[C@@H]1CCC2=Nc3ccccc3CN21
0 (no)
O=C(NCCc1ccc(O)cc1)[C@@H]1CCC2=Nc3ccc(Br)cc3CN21
0 (no)
O=C(NCCCc1ccccc1)[C@@H]1CCC2=Nc3ccc(Br)cc3CN21
0 (no)

IN: Field: below-cutoff. Rule: recorded viability at 1 µM strictly less than 70%. Subject: C[C@@H]([C@@H](O)c1ccc(O)cc1)N1CCC(Cc2ccccc2)CC1 [(S)-IFENPRODIL]
OUT: 0 (no)

IN: Quick one: COc1ccc(COC(=O)[C@@H]2CCC3=Nc4ccccc4CN32)cc1
OUT: 1 (yes)
